Cited source: ChEMBL document CHEMBL3351801

biological target: Nuclear factor NF-kappa-B complex (Homo sapiens) (UniProt Q00653+P19838+Q04206); assay: Inhibition of LPS-induced NF-kappaB (unknown origin) expressed in HEK293 cells at 10 ug/ml after 4 hrs by luciferase reporter gene assay relative to LPS-treated control; format: cell-based
Sequence (P19838 whole entry, looked up): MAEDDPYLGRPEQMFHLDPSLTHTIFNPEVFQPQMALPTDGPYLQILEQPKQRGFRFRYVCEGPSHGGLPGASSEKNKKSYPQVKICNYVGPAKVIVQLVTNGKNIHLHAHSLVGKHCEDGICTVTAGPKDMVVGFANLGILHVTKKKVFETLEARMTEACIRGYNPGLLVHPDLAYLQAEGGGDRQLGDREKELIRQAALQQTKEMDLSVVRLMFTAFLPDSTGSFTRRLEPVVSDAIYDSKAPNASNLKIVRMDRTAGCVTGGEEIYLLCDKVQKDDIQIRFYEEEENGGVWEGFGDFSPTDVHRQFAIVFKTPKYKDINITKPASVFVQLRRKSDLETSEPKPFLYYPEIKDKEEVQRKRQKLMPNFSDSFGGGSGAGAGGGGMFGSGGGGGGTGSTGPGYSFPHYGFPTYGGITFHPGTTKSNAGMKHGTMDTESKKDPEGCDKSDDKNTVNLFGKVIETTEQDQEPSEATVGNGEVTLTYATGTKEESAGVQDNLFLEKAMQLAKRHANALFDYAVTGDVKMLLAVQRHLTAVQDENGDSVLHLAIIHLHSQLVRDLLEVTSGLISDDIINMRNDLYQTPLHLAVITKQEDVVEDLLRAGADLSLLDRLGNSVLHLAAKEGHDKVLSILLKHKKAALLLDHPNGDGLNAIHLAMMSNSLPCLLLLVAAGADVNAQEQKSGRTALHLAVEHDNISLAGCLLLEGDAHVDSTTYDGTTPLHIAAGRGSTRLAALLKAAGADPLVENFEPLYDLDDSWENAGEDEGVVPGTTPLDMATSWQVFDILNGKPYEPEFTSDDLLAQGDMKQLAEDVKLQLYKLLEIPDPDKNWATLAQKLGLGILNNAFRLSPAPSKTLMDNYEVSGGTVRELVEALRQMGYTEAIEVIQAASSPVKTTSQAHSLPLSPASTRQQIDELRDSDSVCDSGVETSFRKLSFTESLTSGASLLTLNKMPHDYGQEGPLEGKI
Sequence (Q00653 whole entry, looked up): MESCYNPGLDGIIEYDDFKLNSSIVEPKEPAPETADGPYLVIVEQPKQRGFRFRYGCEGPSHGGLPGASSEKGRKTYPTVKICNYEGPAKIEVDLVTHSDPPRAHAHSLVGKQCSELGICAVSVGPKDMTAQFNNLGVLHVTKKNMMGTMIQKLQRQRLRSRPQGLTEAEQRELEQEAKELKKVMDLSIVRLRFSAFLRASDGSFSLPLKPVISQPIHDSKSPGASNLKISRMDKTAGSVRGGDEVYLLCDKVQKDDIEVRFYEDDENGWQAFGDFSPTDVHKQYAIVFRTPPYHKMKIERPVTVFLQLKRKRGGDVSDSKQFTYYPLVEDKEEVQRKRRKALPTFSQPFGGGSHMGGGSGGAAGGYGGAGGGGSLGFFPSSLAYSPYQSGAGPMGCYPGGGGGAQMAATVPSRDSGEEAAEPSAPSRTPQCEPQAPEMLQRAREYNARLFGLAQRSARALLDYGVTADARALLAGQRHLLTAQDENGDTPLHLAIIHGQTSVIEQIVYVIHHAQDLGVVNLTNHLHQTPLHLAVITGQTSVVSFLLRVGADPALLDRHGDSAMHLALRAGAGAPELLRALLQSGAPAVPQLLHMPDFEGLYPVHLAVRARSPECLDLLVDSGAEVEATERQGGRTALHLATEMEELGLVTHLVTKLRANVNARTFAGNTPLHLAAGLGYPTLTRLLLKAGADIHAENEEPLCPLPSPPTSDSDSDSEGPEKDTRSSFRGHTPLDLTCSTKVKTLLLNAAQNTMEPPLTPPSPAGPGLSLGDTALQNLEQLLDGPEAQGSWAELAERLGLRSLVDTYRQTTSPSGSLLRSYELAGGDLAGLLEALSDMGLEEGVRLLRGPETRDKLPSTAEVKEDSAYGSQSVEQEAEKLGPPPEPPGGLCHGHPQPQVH
Sequence (Q04206 whole entry, looked up): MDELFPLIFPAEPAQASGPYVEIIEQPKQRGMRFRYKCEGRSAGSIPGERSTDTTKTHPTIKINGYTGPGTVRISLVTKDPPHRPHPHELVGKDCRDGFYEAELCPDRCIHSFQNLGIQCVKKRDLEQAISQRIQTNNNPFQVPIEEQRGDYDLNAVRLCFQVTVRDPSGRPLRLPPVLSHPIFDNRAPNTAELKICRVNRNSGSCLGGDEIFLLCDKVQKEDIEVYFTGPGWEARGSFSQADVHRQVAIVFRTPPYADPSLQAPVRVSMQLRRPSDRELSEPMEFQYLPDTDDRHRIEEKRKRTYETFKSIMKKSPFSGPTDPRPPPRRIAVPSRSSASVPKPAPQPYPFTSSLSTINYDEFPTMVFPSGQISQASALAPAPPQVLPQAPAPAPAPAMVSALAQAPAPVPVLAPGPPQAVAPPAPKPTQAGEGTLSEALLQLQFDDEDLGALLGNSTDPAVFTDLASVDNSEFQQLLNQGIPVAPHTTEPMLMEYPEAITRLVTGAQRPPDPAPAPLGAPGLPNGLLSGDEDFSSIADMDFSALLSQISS
Recorded metric: Ratio
Please respond with just the number, no unit label.

Qu. For the record CC/C(O)=C1/C(=O)O[C@@H]2[C@@]3(OC(C)=O)[C@@H](OC(C)=O)[C@@]4(C)C[C@]35OC3(C)O[C@]26[C@H]1[C@](C)([C@@H](OC(C)=O)c1ccoc1)[C@@H](OC(C)=O)[C@@H](O)[C@]6(O3)[C@]5(COC(C)=O)[C@H]4CC(=O)OC , what value of Ratio is listed for Nuclear factor NF-kappa-B complex (Homo sapiens) (UniProt Q00653+P19838+Q04206)?
Ans. 0.33

Qu. What do you have for COC(=O)[C@H](OC(C)=O)[C@H]1[C@]2(C)C[C@]3(O)[C@@](OC(=O)C(C)C)([C@H]4OC5(C)O[C@@]6([C@H](O)[C@H](OC(C)=O)[C@]78C[C@]7([C@@H](OC(C)=O)C(=O)O[C@H]8c7ccoc7)[C@@]46O5)[C@]13C)[C@H]2OC(C)=O ?
Ans. 0.05

Qu. What do you have for CCC(=O)O[C@@H]1[C@@]2(O)[C@@H](OC(C)=O)[C@@]3(C)C[C@]24OC2(C)O[C@]15[C@@H]1CC(=O)O[C@@H](c6ccoc6)[C@]1(C)[C@@H](OC(C)=O)[C@@H](O)[C@]5(O2)[C@]4(COC(C)=O)[C@H]3CC(=O)OC ?
Ans. 0.26

Qu. What do you have for C[C@]12CCC(=O)C=C1CC[C@@H]1[C@@H]2[C@@H](O)C[C@@]2(C)[C@H]1CC[C@]2(O)C(=O)CO ?
Ans. 0.37

Qu. What do you have for CC(=O)O[C@@H]1[C@H](OC(C)=O)[C@@](C)([C@@H](OC(C)=O)c2ccoc2)[C@H]2CC3(C)O[C@@H]4[C@@]5(OC(C)=O)[C@@H](OC(C)=O)[C@@]6(C)C[C@@]5(O)[C@]5(COC(=O)C[C@@H]65)[C@]1(O)[C@@]24O3 ?
Ans. 0.27

Qu. What do you have for COC(=O)[C@H](OC(C)=O)[C@H]1[C@]2(C)C[C@]3(O)[C@@](O)([C@@H](OC(=O)C(C)C)[C@]45OC6(C)O[C@H]([C@H](O)[C@]78C[C@@]74[C@@H](OC(C)=O)C(=O)O[C@H]8c4ccoc4)[C@]5(O6)[C@]13C)[C@H]2OC(C)=O ?
Ans. 0.1

Qu. What do you have for COC(=O)[C@H](O)[C@H]1[C@]2(C)C[C@]3(O)[C@@](O)([C@@H](OC(=O)C(C)C)[C@]45OC6(C)O[C@H]([C@H](OC(C)=O)[C@]78C[C@@]74[C@@H](OC(C)=O)C(=O)O[C@H]8c4ccoc4)[C@]5(O6)[C@]13C)[C@H]2OC(C)=O ?
Ans. 0.15

Qu. What do you have for CCC12C[C@@H]3[C@](C)([C@@H](OC(C)=O)c4ccoc4)[C@@H](OC(C)=O)[C@@H](OC(C)=O)[C@@]4(O)[C@]3(O1)[C@H](O2)[C@@]1(OC(C)=O)[C@@H](OC(C)=O)[C@@]2(C)C[C@@]1(O)[C@]41COC(=O)C[C@@H]21 ?
Ans. 0.34

Qu. What do you have for CCC12C[C@@H]3[C@](C)([C@@H](OC(C)=O)c4ccoc4)[C@@H](OC(C)=O)[C@@H](OC(C)=O)[C@@]4(O)[C@]3(O1)[C@H](O2)[C@@]1(O)[C@@H](OC(C)=O)[C@@]2(C)C[C@@]1(O)[C@]41COC(=O)C[C@@H]21 ?
Ans. 0.26

Qu. What do you have for COC(=O)C[C@H]1[C@]2(C)C[C@]3(O)[C@@](O)([C@@H](OC(=O)C(C)C)[C@]45OC6(C)O[C@H]([C@H](OC(C)=O)[C@]78C[C@@]74[C@@H](OC(C)=O)C(=O)O[C@H]8c4ccoc4)[C@]5(O6)[C@]13C)[C@H]2OC(C)=O ?
Ans. 0.32

Qu. What do you have for CC/C(O)=C1/C(=O)O[C@@H]2[C@@]3(O)[C@@H](OC(C)=O)[C@@]4(C)C[C@]35OC3(C)O[C@]26[C@H]1[C@](C)([C@@H](OC(C)=O)c1ccoc1)[C@@H](OC(C)=O)[C@@H](O)[C@]6(O3)[C@]5(COC(C)=O)[C@H]4CC(=O)OC ?
Ans. 0.3

Qu. What do you have for CC/C(O)=C1/C(=O)O[C@@H]2[C@@]3(O)[C@@H](OC(C)=O)[C@@]4(C)C[C@]35OC3(C)O[C@]26[C@H]1[C@](C)([C@@H](OC(C)=O)c1ccoc1)[C@@H](OC(=O)C(C)C)[C@@H](OC(=O)C(C)C)[C@]6(O3)[C@@]51COC(=O)C[C@@H]41 ?
Ans. 0.18

Qu. What do you have for COC(=O)C[C@H]1[C@]2(C)C[C@]3(O)[C@@](O)([C@H]4OC(C)=C[C@@H]5[C@](C)([C@@H](OC(C)=O)c6ccoc6)[C@@H](OC(C)=O)[C@@H](OC(C)=O)[C@]6(OC(=O)O[C@]546)[C@]13C)[C@H]2O ?
Ans. 0.57

Qu. What do you have for COC(=O)[C@H](O)[C@H]1[C@]2(C)C[C@]3(O)[C@@](O)([C@H]4OC5(C)C[C@@H]6[C@](C)([C@@H](OC(C)=O)c7ccoc7)[C@@H](OC(C)=O)[C@@H](OC(C)=O)[C@@](O)([C@@]64O5)[C@]13C)[C@H]2O ?
Ans. 0.2

Qu. What do you have for CCC12C[C@@H]3[C@](C)([C@@H](OC(C)=O)c4ccoc4)[C@@H](O)[C@@H](O)[C@@]4(O)[C@]3(O1)[C@H](O2)[C@@]1(OC(C)=O)[C@@H](OC(C)=O)[C@@]2(C)C[C@@]1(O)[C@]41COC(=O)C[C@@H]21 ?
Ans. 0.48

Qu. What do you have for COC(=O)C[C@H]1[C@]2(C)C[C@]3(O)[C@@](OC(C)=O)([C@H]4OC5(C)C[C@@H]6[C@](C)([C@@H](OC(C)=O)c7ccoc7)[C@@H](OC(C)=O)[C@@H](OC(C)=O)[C@@](O)([C@@]64O5)[C@]13C)[C@H]2OC(C)=O ?
Ans. 0.33
